Test system: Neuregulin-1 EGF-like domain
Test: binders of neuregulin-1 EGF-like domain, primary screen, biochemical, small-molecule microarray, 635 nm fluorescence (AID 1081);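 note: binding of the protein to compounds printed on small-molecule microarray slides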
Details: small-molecule microarray binding, higher = more signal
Consider the following molecules; for each one, report its composite z-score.
Respond using a number only.

For reference, reported composite z-score for COC(=O)C1(C)C=C2C(=C(c3ccccc3)C(=O)C2C)CN1 (stereo not drawn) stands at 0.691

Value of composite z-score reported for the molecule CN1C(=O)C2C=CC(C(O)c3ccc(Br)cc3)N(N(c3ccccc3)c3ccccc3)C2C1=O (stereo not drawn) is 0.985

The recorded composite z-score for entry Cn1c(=O)n2n(c1=O)[C@H]1[C@H](O)[C@@H]3O[C@@H]3C(=NOC[C@@H](O)COCc3ccco3)[C@H]1CC2 equals 0.276

Looking up O=C1C[C@@H](O)[C@@H](O)[C@@H]2[C@@H]3C(=O)N(c4ccc(F)cc4F)C(=O)[C@@H]3CC[C@@H]12 , I found its composite z-score recorded as 0.823

Data point: [N-]=[N+]=Nc1ccccc1C[C@@]1(C(N)=O)N=C(c2ccc(OCCCO)cc2)O[C@@H]1c1ccccc1 ; composite z-score = 1.16

// composite z-score value for O=C1[C@H]2[C@H]3[C@H](O)[C@H](O)CC(=NO[C@@H]4O[C@H](CO)[C@@H](O)[C@H](O)[C@H]4O)[C@H]3CC[C@H]2C(=O)N1Cc1ccc2c(c1)OCO2 : 0.592

Note to self: composite z-score recorded for O=C1CCCC=C1C(O)CCOCc1ccccc1 (stereo not drawn) was 0.28

Form field composite z-score, entry C=C(COC)/C(=C/C[C@H](OC(=O)c1ccncc1)c1ccc(CO)o1)c1cc(C(=O)OC)ccc1OC : 0.716
